B1: 6YSE (parent)
chain: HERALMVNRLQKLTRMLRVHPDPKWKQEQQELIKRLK

variants of: B1; test: folding stability dG (cDNA display proteolysis); higher = more stable; conditions: PBS, room temperature
measuredQuantity: folding stability dG (kcal/mol)
Give your result in kcal/mol as a bare value.

Data request, read-out folding stability dG, for P21N
1.51

Quick one: Q11S
1.1

Param item: M6K
-0.045

Entry to check: V19G
1.34

Let us now turn to Q11I
2.12

How about this variant: K37Q
1.8

Now the same for K24Q
1.22

Continue with L17Y
0.234

Consider next the variant K26V in the same way.
1.16

Again, but for P23M
0.09

Moving on to the next variant: A4K
1.68

Request: D22S
1.09

What about E2D ?
1.16

Another: Q30R
1.21

Consider next the variant R18K in the same way.
1.36

Follow-up entry: A4M
1.66

// same read-out, input: P23E
0.721

Same read-out for R9M ?
0.818

Also check Q27A
1.6

Query R35S next
0.493

Note, next up: L17A
-0.037

Query N8F next
1.21
